# Subject of test: HLA-A*02:01 (Homo sapiens, UniProt P04439, D140Y/D185E/D98H/E176V/E277Q/G131W/G231S/I119V/I121R/I166T/I218V/L300P/L318F/N151K/N90K/P208A/P217A/Q86G/Q94H/R138H/R169H/T345S)
# Measurement description: MHC binding assay: UV-ligand exchange with β2m ELISA
# Protocol conditions: binding of HLA-class I restricted peptides to HLA-A*02:01
Property label: Peptide exchange (MHC class I binding score, peptide exchange yield)

32 (IQDAEGAIHEV; listed as Homo sapiens) [compound 32] :: ++++ (>75% = ++++)
42 (ALYTSGHLL; listed as Homo sapiens) [compound 42] :: ++++ (>75% = ++++)
65 (ALWGFFPVLL; listed as Homo sapiens) [compound 65] :: ++++ (>75% = ++++)
10 (TLWPATPPKA; listed as Homo sapiens) [compound 10] :: +++ (>50 = +++)
91 (MLFENMGAYTV; listed as Homo sapiens) [compound 91] :: ++++ (>75% = ++++)

Consider now this further substance.
Ask: Give the measured Peptide exchange (MHC class I binding score, peptide exchange yield) of 84 (ALMAGCIQEA; listed as Homo sapiens) [compound 84] .
Reply: ++++ (>75% = ++++)
